- assay-system: SPOP^MATH (MATH domain of Speckle-type POZ protein, residues 28-166) (UniProt O43791 28-166)
- Sequence (O43791 28-166): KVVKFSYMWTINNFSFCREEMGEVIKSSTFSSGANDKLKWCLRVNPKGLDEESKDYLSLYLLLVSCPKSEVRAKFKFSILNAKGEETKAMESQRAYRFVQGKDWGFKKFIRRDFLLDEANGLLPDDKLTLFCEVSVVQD
- experiment-summary: fluorescence polarisation
metric-name: Kd

Recorded Kd of ENLACDEVTSTTSSST (not fully specified; fluorescein on the N-terminus; C-terminal amide) [F-pPuc (N-terminally fluorescently labeled Puc peptide)] , please.
~6 µM
